- Test system: MCF7
- PROCEDURE TEXT: NCI tumour cell line growth inhibition, 48 h
Activity calls are given as the source filed them. Rule as the data show it: active = GI50 up to about 1.1 µM and inactive = higher.
METRIC NAME: GI50

For reference, reported GI50 for Cc1ccc(NC(=O)CC(=O)N2N=C(N(C)c3ccccc3)CC2c2ccccc2)cc1 (stereo unspecified) stands at > 100 µM (inactive)

For reference, reported GI50 for CC(=O)/C=C/c1c[nH]c(=O)[nH]c1=O stands at 157 µM (inactive)

----------
- System: KM12
- PROCEDURE TEXT: NCI tumour cell line growth inhibition, 48 h
Calls of active or inactive are those of the source. No stated cut-off is given here; in the data, active = GI50 up to about 1.1 µM and inactive = higher.
Bench note: report the call from 1 (yes) = active, 0 (no) = inactive

| COMPOUND | CATEGORY LABEL |
| --- | --- |
| Cc1ccc(S(N)(=O)=O)cc1 [P-TOLUENESULFONAMIDE] | 0 (no) |
| CN1CCCN2CCN(C)CCN(CC1)CC2 | 0 (no) |
| COc1ccc([S+]([O-])Cc2cc(OC)c(OC)c(OC)c2)cc1 (stereo not drawn) | 0 (no) |
| N=C(/C=C/c1ccc(-c2cn3cc(/C=C/C(=N)N4CCOCC4)ccc3n2)cc1)N1CCOCC1 | 0 (no) |
| Cc1cc(O)c2c(c1O)C(=O)c1cccc(O)c1C2=O [ISLANDICIN] | 0 (no) |

Task: I would be grateful if you could indicate the recorded call for O=C(C=C1SCCS1)/C=C\c1ccc(Cl)cc1 .
Result: 0 (no)

Task: I would be grateful if you could indicate the recorded call for CC(=O)Oc1c2c(c(CC=C(C)C)c3c1C(=O)C1=C[C@@H]4CC5C(C)(C)OC(C/C=C(/C)C(=O)O)(C4=O)[C@@]15O3)OC(C)(CCC=C(C)C)C=C2 (stereo partly drawn) .
Result: 1 (yes)

Task: I would be grateful if you could indicate the recorded call for O=C1CC(=O)N(c2ccccc2)N1/C(=C/c1ccccc1)c1ccccc1 .
Result: 0 (no)

Task: I would be grateful if you could indicate the recorded call for O=C(CSc1nc2ccc(I)cc2c(=O)n1Cc1ccccc1)NNC(=O)c1ccccc1 .
Result: 0 (no)

Task: I would be grateful if you could indicate the recorded call for COC1C=C(Nc2cccc(Cl)c2)C(=O)C1 (stereo not drawn) .
Result: 0 (no)

Task: I would be grateful if you could indicate the recorded call for CCOc1cc(/C=C/C=C/C=C/c2ccc(N(C)C)cc2)[s+]c2ccccc12 .
Result: 0 (no)

Origin of values: ChEMBL document CHEMBL1201862
